Tested on: MALME-3M melanoma
PROCEDURE TEXT: NCI-60 one-dose screen, 48 h
EXPERIMENTAL CONDITIONS: 10 µM unless noted
This is part of a sample that, as a whole, favours compounds with a hit. Of some 83,000 tested, about 20% had one in any assay. Calls of active or inactive are those of the source. How the source made its calls: active means growth percent below 10; inactive means the rest.
Please answer using one outcome listed in active, inactive

The examples below pair each entry with its known result.
Cc1c(O)ccc(SC#N)c1C = inactive
CC(C)(C)c1ccc(O)c(Br)c1 = inactive

Dear all, I need the recorded test outcome for CC12CCC(O)CC1=CCC1C2CCC2(C)C3=NN=CC3CC12 (configuration not stated) , thank you.
inactive

Please let me know the test result on file for `Cc1cc(C)c(C#N)c(Sc2nc(C)c([N+](=O)[O-])c(C)c2C#N)n1` .
inactive

How was `O=C(O)c1cccc2cccc(-c3c4ccc(=O)c(O)c-4oc4c(O)c(O)ccc34)c12` classified in this test?
inactive

Each molecule tested received a call. Report the one for `NC(=S)N/N=C\c1nccc2c(C(F)(F)F)cccc12` .
active

Lab log entry: OC(c1cc2ccc(C(F)(F)F)cc2c2cc(C(F)(F)F)ccc12)C1CCCCN1 (configuration not stated) — outcome as called in the assay?
active

Tell me the assay call for `N#C/C(=N\Nc1ccc(Cl)cc1)C(=O)C1CC1` please.
inactive

Test call for this molecule, please: `O=C1Nc2ccc(Br)cc2C1=O`
inactive

Hello, I am checking results. What call was entered for `O=C(/C=C/C(Cl)(Cl)Cl)Nc1ccc(Cl)cc1` ?
inactive

Assay result, entry `S=C1SCN(Cc2cccs2)CN1Cc1cccs1` — outcome?
inactive

Could you check what this test reported for `O=C1C=CC(=O)c2c(O)c(CO)c(CO)c(O)c21` ?
active
